Molecular target: ETS1 (UniProt P14921)
Sequence: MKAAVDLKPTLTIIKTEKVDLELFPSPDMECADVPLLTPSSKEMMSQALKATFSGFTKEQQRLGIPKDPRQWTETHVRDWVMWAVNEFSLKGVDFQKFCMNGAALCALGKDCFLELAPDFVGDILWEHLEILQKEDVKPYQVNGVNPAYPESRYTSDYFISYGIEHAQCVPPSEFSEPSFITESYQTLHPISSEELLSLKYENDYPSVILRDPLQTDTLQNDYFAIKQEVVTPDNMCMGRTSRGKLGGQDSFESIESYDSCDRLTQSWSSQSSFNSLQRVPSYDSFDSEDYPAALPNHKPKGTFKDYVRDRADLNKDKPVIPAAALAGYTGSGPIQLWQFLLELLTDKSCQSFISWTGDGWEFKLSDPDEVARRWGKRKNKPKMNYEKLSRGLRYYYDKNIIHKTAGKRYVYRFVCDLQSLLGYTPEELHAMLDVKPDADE
Test: TF binding intensity (PBM fluorescence), negative control probe (arbitrary fluorescence units); higher = stronger binding
endpoint-name: TF binding intensity

Query: Give the reported TF binding intensity for this sequence. GTTGTTATGCAAGGTTGTGGTTTTTGCAGTCTTTTG (protein concentration 1 nM)
Result: 498

Query: Give a short answer stating reported TF binding intensity for AAACTAATCAGAATTTAACATCATACATAAATGGCA (protein concentration 10 nM) .
Result: 116

Query: Quickly give me recorded TF binding intensity for AAAATACTGCCTTCAAGTACTGTGACTCTTTTCAGG (protein concentration 10 nM)
Result: 112

Query: Consider the sequence GTTCATCATCTCTCGTCAAGATGATTAACGACATGG (protein concentration 10 nM) . State its measured TF binding intensity.
Result: 141

* * *

Molecular target: ETS1 (UniProt P14921)
Sequence: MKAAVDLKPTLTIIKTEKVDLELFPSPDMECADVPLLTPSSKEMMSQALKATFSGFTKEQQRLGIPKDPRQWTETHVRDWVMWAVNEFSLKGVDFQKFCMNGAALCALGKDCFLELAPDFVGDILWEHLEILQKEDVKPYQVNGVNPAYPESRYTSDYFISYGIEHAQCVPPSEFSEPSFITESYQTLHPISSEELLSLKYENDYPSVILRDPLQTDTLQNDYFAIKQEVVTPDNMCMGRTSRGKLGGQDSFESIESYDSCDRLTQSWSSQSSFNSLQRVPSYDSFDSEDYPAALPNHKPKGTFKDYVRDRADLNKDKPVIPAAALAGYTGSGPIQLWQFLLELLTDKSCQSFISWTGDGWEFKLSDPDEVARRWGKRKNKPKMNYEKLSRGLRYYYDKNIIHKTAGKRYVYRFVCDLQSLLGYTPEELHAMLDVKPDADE
Test: ETS1 binding intensity (PBM fluorescence), ETS1 alone (arbitrary fluorescence units); higher = stronger binding
Conditions: ETS1 concentration 1 nM; RUNX1 concentration 0 nM
Can you tell me ETS1 binding intensity for the items I'm about to list?
Answer with a bare number; do not write a unit.

Query: Report measured ETS1 binding intensity; entry is CAGAAAGAGGAAATGATGCGAGTCCACACCGCAGGC
Result: 788

Query: // Input: ACATGGTCTCGCTTCCTGTTTACACCACAGAAAGCT . Output its ETS1 binding intensity only.
Result: 2820

Query: // fetch ETS1 binding intensity given entry TTACGACACTTCCGGCGACGCCCCGCAGCCTTCACC
Result: 2890

Query: Give recorded ETS1 binding intensity. CCCGGTGCACCGGATCCGACCACACCCTGGGTGGGC
Result: 525

Query: Give recorded ETS1 binding intensity. CCCTGCCATTTCCTGCCCAATACCGCGTATGCAACT
Result: 1630

Query: In one line, give reported ETS1 binding intensity of the entry TTCAATCACAGGAAACAGACGTCACCCACAGACCTA .
Result: 1090

Query: # return recorded ETS1 binding intensity for input ACCCGGATGTCGTTGGGCAGGAACTGCGGTGAGGGC
Result: 2580

Query: Given the sequence TGGCAGGATGCCGTTAAATATGTAACCACATGTCTC , write its reported ETS1 binding intensity.
Result: 500

Query: Please report the measured ETS1 binding intensity for GCAGTCGCTAAGGGCGGAAACCACTGTTTGGGAGCT
Result: 2110

Query: Entry CGTTCTCTCATTTCCTGTGTGCACCCACATGAACCA needs its ETS1 binding intensity filled in; supply it.
Result: 3340

Query: Give the reported ETS1 binding intensity for this sequence. GCTCTGCAGGATGTGGCTGTGACCGCAGTGAGGAGC
Result: 1290

Query: Answer with the recorded ETS1 binding intensity of TGGAGTGAAGCGGCTTCCTTGCGGTTGTGTGCGTGT only.
Result: 403

Query: Answer with reported ETS1 binding intensity of TTGGAAACAGACAGGAAGCCACAGGCAGTAAACATT
Result: 3300

Query: Note down ETS1 binding intensity recorded for ACCCTACTTCCGTTGCTGTGTTGCGGAGGTGACCTA
Result: 1210

Query: Supply ETS1 binding intensity value. Item: CTTTCGCTTCCTTTCCCCGCCTCTTAGTCCCGCAGA
Result: 464

Query: Look up and state reported ETS1 binding intensity for TTGCTAGAGGAAGCGCTGCCCCGGCAGCCGCAGCCA
Result: 524

Query: Look up and report measured ETS1 binding intensity for this entry: CGCCTGCCCCACTTCCGCCCGGACCCGCAGCCCCTA
Result: 2450

Query: Answer with reported ETS1 binding intensity of CCCCTTCATCCGCCTCTCTCTCACCGCGCCGCTCCC
Result: 449

Query: Provide only the value of recorded ETS1 binding intensity for GGCATTCACTTCCGGTCTGGGGCCTGCGGCGGCGGC
Result: 18600

Query: Give recorded ETS1 binding intensity. AACTGTCTCTACCCAGGAAGTGGTTTTATTTAAAAG
Result: 5160

Query: Supply recorded ETS1 binding intensity for CATTGATCAAAGACAGGATGTGGTAACAGGCAGTTA here.
Result: 8340

Query: Answer with the recorded ETS1 binding intensity for the sequence listed here: TGGCTTGAGCTCAGGAAGTTGTGGCTGCAGTAAGCT
Result: 1470

Query: Query ETS1 binding intensity for GCAGAGTTTACAACAGGATGTGGTTATTGGCGCTGC
Result: 8870

Query: # return recorded ETS1 binding intensity for entry GCCAGCGGGGCTTCCGGCCCCGCAGGCAGAAGTCGA
Result: 1460

Query: Note ETS1 binding intensity for the sequence shown: CAACTGACCGGACAGAACACAGCCACAAAACACGAG
Result: 512

* * *

Consider the following sequences; for each one, report its ETS1 binding intensity.
Target: ETS1 (UniProt P14921)
Sequence: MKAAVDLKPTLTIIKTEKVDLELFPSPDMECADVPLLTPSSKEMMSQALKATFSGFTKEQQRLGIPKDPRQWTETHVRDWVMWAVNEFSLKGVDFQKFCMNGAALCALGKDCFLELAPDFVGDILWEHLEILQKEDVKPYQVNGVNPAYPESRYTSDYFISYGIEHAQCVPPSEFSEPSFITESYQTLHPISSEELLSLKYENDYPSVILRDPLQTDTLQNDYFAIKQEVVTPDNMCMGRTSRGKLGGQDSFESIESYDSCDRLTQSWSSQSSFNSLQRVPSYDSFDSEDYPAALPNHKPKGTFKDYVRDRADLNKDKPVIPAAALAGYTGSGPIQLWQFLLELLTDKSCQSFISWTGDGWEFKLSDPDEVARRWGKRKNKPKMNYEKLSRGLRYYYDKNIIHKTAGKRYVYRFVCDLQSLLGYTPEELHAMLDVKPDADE
Assay: ETS1 binding intensity (PBM fluorescence), ETS1 alone (arbitrary fluorescence units); higher = stronger binding
Settings: ETS1 concentration 1 nM; RUNX1 concentration 0 nM
Write the value as a bare number.

Query: // fetch ETS1 binding intensity given entry CCGGCAGGAAGTTAGCATGGGCGGACCACACGGGGG
Result: 1400

Query: Give ETS1 binding intensity for the following sequence: TACTTAGAGGAAATGTGGCCTGTGGTCTTGTCTCAC
Result: 617

Query: Kindly indicate its recorded ETS1 binding intensity. Item: AGTGGATAGCACTTCCTTCTCTTACCACAGTTCCTT
Result: 365

Query: For GGGCCCCCGGAAAGAGCTTTGACCGCTCGAGCCTGC , write its ETS1 binding intensity.
Result: 456

Query: Retrieve ETS1 binding intensity measured for TACAGCCAGGAAATGGGGAGGGTGCTGCGGGCGGCA and print it.
Result: 858

Query: Retrieve ETS1 binding intensity measured for ATCTTGGCCCATATCCTGTGGTGTTCTGCTAGAGGT and print it.
Result: 768

Query: Give the value of ETS1 binding intensity reported for the following: CTGACAGTTACTTCCTGTCTTTGTGGGCGATTGTGA
Result: 3170

Query: Specify reported ETS1 binding intensity for the sequence shown: CTGCGTCCCGGAAGGAGCGAGCTTGCGGAGCGTGAA
Result: 710

Query: Indicate its recorded ETS1 binding intensity; the sequence in question is TGGAAGCGGCTTCCGGGGTGAATGCGGTTGGATCGT
Result: 1150

Query: Please look at this sequence and report its ETS1 binding intensity: GTCCCCCTTCCGGCTGCAGGTTGAGGTTTGGAACCT
Result: 511

Query: Item TGATTAAAAACAGGATGTGGGTGAATAGTCATGCAT : provide ETS1 binding intensity
Result: 4810

Query: State, in one line, measured ETS1 binding intensity of TCCCTTACCTTCCTGCTGCCACCAAACCACCAAACC
Result: 460

Query: Identify ETS1 binding intensity associated with the sequence GAACACGGAAACACTGAGCTTTTACTTTGACCACAC
Result: 572

Query: Name the recorded ETS1 binding intensity of the item CTACCGGAAATGCAGCACCACGTAAAATGCGGTCGG in your answer.
Result: 3650

Query: Give a short answer stating reported ETS1 binding intensity for TCGGTGAAGGACGGAAGATGATAGCCACATTTCTTC .
Result: 512

Query: Give reported ETS1 binding intensity value for CCCTTCGCTTCCGCTCCGCGTTCCCACAATGCAGTG
Result: 884

Query: Consider the sequence TCTAGTAAAAGAGGAAGTTCTTAACCACATTTCCAT . State its measured ETS1 binding intensity.
Result: 2100

Query: Please give the documented ETS1 binding intensity of CAGATTTCCGGCTTCTGAGGAGCTGCCCTACCACAG
Result: 530

Query: Complete the entry with ETS1 binding intensity for TGCATGCAACAGGAAGTGGGGTGTGGTTTGTTCTGG
Result: 11600

Query: Identify measured ETS1 binding intensity associated with GACAGAGGAAACTAGGTGTGACAACCACAAACAGCT
Result: 432

Query: Give the measured ETS1 binding intensity for GCACACCGGAACTCACACCTGAAACCACAGAACCAA
Result: 868

Query: Return ETS1 binding intensity (reported value) for this sequence: CCACGCCCCCTCCTTCCGCTGCGGGAGATAGCCACT
Result: 787

Query: Identify measured ETS1 binding intensity corresponding to CTAGCTGTGGACAGGAAACGAGTGGTTTTTGTGATC
Result: 5270

Query: Supply recorded ETS1 binding intensity for TCAGTGCACTCGGATGTTGGCCGCAGTTGGGGTTAT here.
Result: 453

Query: Specify measured ETS1 binding intensity for CTGCCGGAAGCTGCCCCTCCACCATTTTGTGGCCCG .
Result: 1770
